biological target: SARS-CoV-2 Main Protease (SARS-CoV-2) (UniProt P0DTD1); conditions: 20.0 µM
For each of the compounds below, state its inhibition.
One number for each entry, in %.

Solved entries:
1) Cc1ccc(OCCN2C(=O)C(=O)c3cccc(Cl)c32)cc1: 0.316
2) C[C@@H](Cn1ccc(-c2ccc(C#N)c(Cl)c2)n1)NC(=O)c1cc([C@@H](C)O)[nH]n1 (stereo in doubt): 3.16
3) COc1cc(Cl)c(C)cc1NC(=O)Nc1cn(C)c(=O)c2ccccc12: 23.7
4) C=CC(=O)Nc1cccc(OC2CC(=O)N2)c1 (stereo not drawn): 5.39
5) N#Cc1ccccc1S(=O)(=O)N1CCN(C(=O)c2cc(=O)[nH]c3cc(F)ccc23)CC1: 1.1
6) O=C(CCl)N1CCN(S(=O)(=O)c2cccc(F)c2)CC1: 97.3
7) CCc1cccc(CC)c1NC(=O)CN1C(=O)C(=O)c2cc(OC)ccc21: -6.58
8) C=C(CN(C)C)C(=O)N1Cc2ccccc2C(c2ccccc2)C1 (stereo not drawn): 0.735

Give inhibition for all compounds that follow.
1. Cc1cc(C)c(C)c(S(=O)(=O)N2CCN(C(=O)c3cc(=O)[nH]c4ccccc34)CC2)c1C
2. Cc1cccc(NC2CCN(c3ccc(S(N)(=O)=O)cc3)CC2)c1
3. C=CC(=O)N(c1ccc2ncsc2c1)C(C(=O)Nc1ccc(Cl)cc1)c1cccnc1 (stereo not drawn)
4. COc1cccc2c1OCC(NC(=O)c1cc(=O)[nH]c3ccc(F)cc13)C2 (stereo not drawn)
5. O=C(Nc1cnccc1CO)[C@@H]1COc2ccc(Cl)cc21 (stereo in doubt)
6. O=C(CCl)N1CCN(Cc2nc(-c3cccs3)no2)CC1
7. O=C(CCl)N1CCN(Cc2cnc(Cc3ccccc3)s2)CC1
8. C=CC(=O)N(c1ccc(C(C)(C)C)cc1)C(C(=O)NC1CCCC1)c1cccnc1 (stereo not drawn)

(A)
[84.4, -2.59, 8.95, 2.25, 46.1, 6.55, 41.5, -10.5]

Batch lookup, inhibition per entry.
1. CCCC(C(=O)Nc1cnccc1C)c1cccc(Cl)c1 (stereo not drawn)
2. C=CC(=O)N(c1ccc(C(C)(C)C)cc1)C(C(=O)NCc1cccnc1)c1cccnc1 (stereo not drawn)

(A)
1. 77.9
2. 41.2

* * *

target: SARS-CoV-2 Main Protease (SARS-CoV-2) (UniProt P0DTD1); conditions: 20.0 µM
Reported Property: inhibition

1) O=C(CCl)Nc1nc2c(S(=O)(=O)NCCc3ccccc3)cccc2s1: 58%
2) C=CC(=O)N(c1ccc(C(C)(C)CC)cc1)C(C(=O)Nc1ccc(Cl)cc1)c1cccnc1 (centres undefined): 16.5%
3) CC1(C)Cc2cccc(OCCNC(=O)c3cc(=O)[nH]c4ccc(Cl)cc34)c2O1: 5.99%
4) COc1cc2c(cc1OC)C(C)N(C(=O)Nc1cn(C)c(=O)c3ccccc13)CC2 (centres undefined): 51.2%
5) O=C(Nc1ccc(Oc2ncccn2)cc1)C(=O)N1CCN(Cc2cccs2)CC1: -21%
6) CCC(=O)NCC[C@@H]1CCc2ccc3c(c21)CCO3 (stereo in doubt): 0.473%
7) C=CC(=O)N(c1ccc(C(F)(F)F)cc1)C(C(=O)NCCc1cccc(F)c1)c1cccnc1 (centres undefined): 50.7%
8) O=C(CCl)N1CCN(Cc2cccc(CNC(=O)N3CCOCC3)c2)CC1: 11.7%

Please state inhibition for every compound in the list that follows.
1. C=CC(=O)N(c1ccc(C(C)(C)C)cc1)C(C(=O)NC(C)(C)C)c1cncc(Br)c1C (centres undefined)
2. Cc1ccncc1NC(=O)Cc1ccc2[nH]ccc2c1
3. O=C1C(Nc2ncnc3[nH]cnc23)CCN1Cc1ccccc1 (centres undefined)

(A)
["-4.32%", "2.86%", "-6.26%"]

Could you report inhibition for every entry in the following list?
1. CO[C@@H]1C[C@@H](COc2cccnc2)N(c2ncccn2)C1 (stereo in doubt)
2. O=C(NCc1ccno1)c1ccccc1OC1CCCCC1
3. Cc1ccccc1CNc1ccccc1NC(=O)C(O)c1cccnc1 (centres undefined)
4. O=C(c1cc(=O)[nH]c2ccccc12)N1CCN(S(=O)(=O)c2ccccc2)CC1

(A)
["-6.63%", "4.09%", "-0.056%", "16.1%"]

Please look at the items below and tell me inhibition for each one, in order.
1. NS(=O)(=O)c1ccc(N2CCC(c3nc4ccccc4s3)CC2)cc1
2. C[C@@H]1CC[C@@H](c2ccoc2)N2C1CC[C@@]1(CS[C@@]3(CC[C@H]4[C@H](C)CC[C@@H](c5ccoc5)N4[C@@H]3O)C1)[C@@H]2O (stereo in doubt)
3. COc1ccc(C2CC(c3cccs3)=NN2C(=O)CCl)cc1OC (centres undefined)
4. C=CC(=O)N(c1ccc(SC)cc1)C(C(=O)Nc1ccc(OC)cc1C)c1cccnc1 (centres undefined)

(A)
1. -11.9%
2. -19.4%
3. 99.4%
4. 8.27%

* * *

Give inhibition for every item shown.
molecular target: SARS-CoV-2 Main Protease (SARS-CoV-2); conditions: 50.0 µM
Numbers only, in %.

Record excerpt, results attached:
1. O=c1ccc2c3ccc(=O)c4c(O)ccc(c5ccc(O)c1c52)c43: 42.5
2. CSC1=C(C#N)C2(CCCCC2)C(C#N)=C(NC(=O)CCl)N1: 97.5
3. Cc1ccncc1NC(=O)Nc1cccc(Cl)c1: 64.1

Give inhibition for each listed item.
1. O=C(NCC1COc2ccccc2O1)c1cc(=O)[nH]c2cc(F)ccc12 (stereo not given)
2. CC(=O)N1CCN(S(=O)(=O)c2ccsc2)CC1

(A)
1. 3.98
2. 3.62

For each entry beneath this line, provide reported inhibition.
1. C=CC(=O)N(c1ccc(C(C)(C)C)cc1)C(C(=O)NCCc1cccc(F)c1)c1cncc(Cl)c1 (stereo not given)
2. COCc1cc(Cl)cc(CN2CCN(C(=O)CCl)CC2)c1
3. O=C(c1cc(=O)[nH]c2ccccc12)N1CCN(c2ccc(F)cc2)CC1
4. CNC(=O)OC1CCN(Cc2ccccc2)CC1
5. COc1cccc2c1OCC(NC(=O)c1cc(=O)[nH]c3ccc(F)cc13)C2 (stereo not given)

(A)
1: 60.6; 2: 118; 3: 52.3; 4: 0; 5: 11

* * *

details: 20.0 µM
For each record, write down the corresponding relative solubility at 20 uM.
One number for each entry.

Below: 3 molecules and their reported relative solubility at 20 uM.
1) CC(C)[C@@H](C#N)NS(=O)(=O)c1ccc(CF)cc1 (stereo in doubt): 1
2) O=C1Nc2cc(Br)ccc2C1=O: 1
3) O=C(Cc1ccccc1)Nc1cccc(OC2CC(=O)N2)c1 (centres undefined): 1

Next, consider the following molecule.
(Q) Supply measured relative solubility at 20 uM of `O=C(c1cc(=O)[nH]c2ccc(F)cc12)N1CCN(S(=O)(=O)c2ccccc2Cl)CC1` in your reply.
(A) 0.98

* * *

Task for the reader: assign each of the following compounds its reported inhibition.
target: SARS-CoV-2 Main Protease (SARS-CoV-2) (UniProt P0DTD1); settings: 50.0 µM
Answers are plain numbers, in %.

1) C=CC(=O)N(c1ccc(C(C)(C)C)cc1)C(C(=O)NC1CCC1)c1cccnc1 (centres undefined): 12

Hey, can you go through the list below and give me inhibition for every item?
1. CN1CCN(C(=O)Cc2c[nH]c3ncc(C(=O)NCCc4c[nH]c5ccc(F)cc45)cc23)CC1
2. COc1ccccc1OCCNC(=O)c1cc(=O)[nH]c2cc(F)ccc12
3. Cc1[nH]c2ncnc(NC(=O)c3cccc4c3oc(=O)n4C)c2c1C
4. CCS(=O)(=O)N1CCC(C(=O)Nc2cc(Cl)ccc2O)CC1
5. O=C(C1CCCN1C(=O)c1ccccc1)N1CCOCC1 (centres undefined)

(A)
[7.57, 51.7, 6.1, -2.7, -28]

Hi, could you look up inhibition for each item in my list?
1. COC(=O)c1cc(Br)cc2c1NC(=O)C2=O
2. O=C(CCl)N1CCN(C2(c3cccc(Cl)c3)CC2)CC1
3. CC(=O)NCCc1cn(CC(=O)N2CCOCC2)c2ccccc12
4. O=C(CCl)N1CCN(S(=O)(=O)c2cccc(F)c2)CC1
5. C=CC(=O)N(c1ccc(C2(C)CC2)cc1)C(C(=O)Nc1ccc(OC)cc1)c1cccnc1 (centres undefined)
6. CC(=O)Oc1ccccc1C(=O)Nc1ncc([N+](=O)[O-])s1
7. C[C@H]1CN(Cc2ccccc2)CC[C@@H]1NC(=O)C(=O)NCc1ccccc1CN1CCCC[C@@H]1C (stereo in doubt)

(A)
1. -5.38
2. 80.8
3. 6.56
4. 104
5. 12.6
6. -8.72
7. 1.34

(Q) Give me measured inhibition, please, for this compound: `O=C(NCCNc1ccnc2cc(Cl)ccc12)Nc1ccc(F)cc1`
(A) 29.5

* * *

target: UniProt:P0DTD1; conditions: 20.0 µM
Rule: inhibition of 10% or more gives Met; anything lower gives Not met.

1. CC(=O)NCCc1c[nH]c2c(NCc3ccc4nc[nH]c4c3)cc(F)cc12: Not met
2. Cc1ccccc1NC(=O)CC1SC(=O)N(c2ccccc2)C1=O (stereo not drawn): Met
3. CS(=O)(=O)Nc1cccc(C(=O)Nc2cccc(N3CCCC3=O)c2)c1: Not met
4. CC(=O)NCCc1c[nH]c2c(CN3CCN(C(=O)CCl)CC3)cccc12: Met
5. C=CC(=O)N(c1ccc(C(C)(C)C)cc1)C(C(=O)Nc1ccc(OC)nc1)c1cccnc1 (stereo not drawn): Not met

(Q) Hello, I need to know if `O=C(NCc1cnn2ccccc12)c1cccnc1OCCO` has measured inhibition not below 10%. Thanks!
(A) Not met
